molecular target: various mutants of kinase EGFR (BaF3 cell lines stably transfected with kinase) (Homo sapiens); construct: other: BaF3 cells stably transfected with EGFR Δ19Del; MTS, 48 h; other: BaF3 cell line stably transfected with EGFR Δ19Del; assay: Growth inhibitory activity of compounds on BaF3 cell lines stably transfected with kinase (MTS, 48 h); type: cell-based; conditions: BaF3 cell line stably transfected with EGFR Δ19Del, read-out: Δ19Del growth inhibitory activity IC50
Sequence (P00533 with tags, fused parts or gaps DEL746-750): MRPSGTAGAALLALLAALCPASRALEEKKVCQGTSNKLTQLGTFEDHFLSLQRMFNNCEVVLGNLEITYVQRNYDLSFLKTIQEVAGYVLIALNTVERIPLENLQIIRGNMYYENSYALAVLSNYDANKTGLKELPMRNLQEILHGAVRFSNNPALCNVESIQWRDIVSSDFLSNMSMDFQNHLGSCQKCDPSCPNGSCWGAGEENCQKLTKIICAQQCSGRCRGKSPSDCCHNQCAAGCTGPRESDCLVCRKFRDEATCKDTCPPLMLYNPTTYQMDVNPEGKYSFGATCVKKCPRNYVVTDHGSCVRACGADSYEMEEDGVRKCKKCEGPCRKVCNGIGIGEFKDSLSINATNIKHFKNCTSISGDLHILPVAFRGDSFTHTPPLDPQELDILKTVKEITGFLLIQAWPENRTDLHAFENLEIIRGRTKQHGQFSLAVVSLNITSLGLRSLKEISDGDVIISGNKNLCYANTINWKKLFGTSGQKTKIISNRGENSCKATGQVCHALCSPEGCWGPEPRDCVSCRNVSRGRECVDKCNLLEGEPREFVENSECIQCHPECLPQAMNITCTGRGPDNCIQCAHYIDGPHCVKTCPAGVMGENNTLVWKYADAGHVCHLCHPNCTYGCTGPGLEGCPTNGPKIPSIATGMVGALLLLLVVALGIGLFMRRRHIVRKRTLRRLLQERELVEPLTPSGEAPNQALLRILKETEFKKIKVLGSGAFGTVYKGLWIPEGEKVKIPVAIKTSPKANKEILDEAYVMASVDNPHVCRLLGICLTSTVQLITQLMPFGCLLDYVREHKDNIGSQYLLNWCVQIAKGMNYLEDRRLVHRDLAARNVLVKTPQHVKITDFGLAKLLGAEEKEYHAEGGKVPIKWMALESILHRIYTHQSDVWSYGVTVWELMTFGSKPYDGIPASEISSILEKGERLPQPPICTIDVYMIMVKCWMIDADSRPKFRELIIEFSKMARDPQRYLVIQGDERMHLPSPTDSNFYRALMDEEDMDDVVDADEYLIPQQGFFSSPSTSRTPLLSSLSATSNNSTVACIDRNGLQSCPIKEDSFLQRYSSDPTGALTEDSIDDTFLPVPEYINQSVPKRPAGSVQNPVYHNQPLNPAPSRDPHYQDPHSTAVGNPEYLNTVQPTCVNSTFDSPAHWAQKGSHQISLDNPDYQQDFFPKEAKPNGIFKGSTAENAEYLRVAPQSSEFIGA
Assay metric: IC50

{"columns": ["Molecule", "Assay metric", "Reported"],
 "data": [
  ["COc1ccc(N2CCC(C#N)CC2)cc1Nc1ncc(Br)c(Nc2ccc3nccnc3c2N(C)S(C)(=O)=O)n1 [Compound I-351]", "IC50", "50 to 500 nM"]
]}

List IC50 for every entry below, keeping the order given.
1. COc1cc(N2CCC(N3CCN(C)CC3)CC2)c(C(C)C)cc1Nc1ncc(C#N)c(Nc2ccc3nccnc3c2N(C)S(C)(=O)=O)n1 [Compound I-345]
2. CCc1cc(Nc2ncc(OC)c(Nc3ccc4nccnc4c3N(C)S(C)(=O)=O)n2)c(OC)cc1N1CCC(N(C)C)C1 (stereo not drawn) [Compound I-335]

Output:
50 to 500 nM
≤ 50 nM
